Target: T1, human TMEM106B (human, UniProt Q9NUM4 2-274)
T1 construct: Full-length, on transiently transfected HEK293 cells, or natively expressed on HeLa, U251 and A549 cells; also called huTMEM106B; huTMEM
Test: FACS U251;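 also: flow cytometry of cells exposed to antibody (purified at 10 µg/mL, or hybridoma supernatant) for 1 h on ice, with propidium iodide-positive dead cells gated out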
Attribute measured: MFI
Form rule: numeric answer, no unit written next to it.

Example binders with recorded MFI:
1. anti-TMEM106B antibody TM-14 (antibody, V domains shown, mouse IgG from hybridoma) VH: QVQLQQSGPELVRPGTSVKVSCKASGYAFTNYLIEWVKQRPGQGLEWIGVINPGGGNTDYSEKFKDKATLTADKSSNTAYIQLSSLTSEDSAVYFCARSPYSSYVGYAVDYWGQGTSVTVSS VL: DIQMTQSPSSLSASLGERVSLTCRASQDIGSNLNWLQQEPDGTIKRLIYATSSLDSGVPKRFSGSRSGSDYSLTISSLESEDFVVYYCLQYASSPRTFGGGTRLEIK	270
2. anti-TMEM106B antibody TM-35 (antibody, V domains shown) VH: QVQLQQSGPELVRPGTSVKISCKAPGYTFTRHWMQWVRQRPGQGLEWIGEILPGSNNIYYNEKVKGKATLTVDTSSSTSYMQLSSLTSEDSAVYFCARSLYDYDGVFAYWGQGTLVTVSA VL: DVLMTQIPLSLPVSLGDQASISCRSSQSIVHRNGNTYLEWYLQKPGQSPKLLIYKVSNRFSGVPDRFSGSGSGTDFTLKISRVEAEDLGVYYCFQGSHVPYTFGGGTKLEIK	370
3. anti-TMEM106B antibody TM-8 (antibody, V domains shown, mouse IgG from hybridoma) VH: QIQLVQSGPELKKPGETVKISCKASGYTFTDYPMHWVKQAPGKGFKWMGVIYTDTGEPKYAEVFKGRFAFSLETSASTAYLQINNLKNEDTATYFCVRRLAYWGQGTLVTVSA VL: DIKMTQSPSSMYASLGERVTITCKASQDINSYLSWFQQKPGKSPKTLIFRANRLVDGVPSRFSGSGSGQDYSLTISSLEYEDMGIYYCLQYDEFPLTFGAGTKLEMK	304

What value of MFI has been reported for the following binder? anti-TMEM106B antibody TM-25 (antibody, V domains shown) VH: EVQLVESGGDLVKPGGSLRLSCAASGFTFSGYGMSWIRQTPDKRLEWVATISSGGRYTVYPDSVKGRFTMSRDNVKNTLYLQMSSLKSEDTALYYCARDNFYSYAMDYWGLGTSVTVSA VL: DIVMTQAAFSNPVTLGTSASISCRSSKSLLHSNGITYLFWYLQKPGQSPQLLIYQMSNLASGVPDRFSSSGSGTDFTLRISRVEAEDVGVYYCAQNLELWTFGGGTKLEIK
1110

Reference source: patent US20230303681A1
